target.of.assay: Androgen receptor (Homo sapiens) (UniProt P10275)
Sequence (P10275 whole entry, looked up): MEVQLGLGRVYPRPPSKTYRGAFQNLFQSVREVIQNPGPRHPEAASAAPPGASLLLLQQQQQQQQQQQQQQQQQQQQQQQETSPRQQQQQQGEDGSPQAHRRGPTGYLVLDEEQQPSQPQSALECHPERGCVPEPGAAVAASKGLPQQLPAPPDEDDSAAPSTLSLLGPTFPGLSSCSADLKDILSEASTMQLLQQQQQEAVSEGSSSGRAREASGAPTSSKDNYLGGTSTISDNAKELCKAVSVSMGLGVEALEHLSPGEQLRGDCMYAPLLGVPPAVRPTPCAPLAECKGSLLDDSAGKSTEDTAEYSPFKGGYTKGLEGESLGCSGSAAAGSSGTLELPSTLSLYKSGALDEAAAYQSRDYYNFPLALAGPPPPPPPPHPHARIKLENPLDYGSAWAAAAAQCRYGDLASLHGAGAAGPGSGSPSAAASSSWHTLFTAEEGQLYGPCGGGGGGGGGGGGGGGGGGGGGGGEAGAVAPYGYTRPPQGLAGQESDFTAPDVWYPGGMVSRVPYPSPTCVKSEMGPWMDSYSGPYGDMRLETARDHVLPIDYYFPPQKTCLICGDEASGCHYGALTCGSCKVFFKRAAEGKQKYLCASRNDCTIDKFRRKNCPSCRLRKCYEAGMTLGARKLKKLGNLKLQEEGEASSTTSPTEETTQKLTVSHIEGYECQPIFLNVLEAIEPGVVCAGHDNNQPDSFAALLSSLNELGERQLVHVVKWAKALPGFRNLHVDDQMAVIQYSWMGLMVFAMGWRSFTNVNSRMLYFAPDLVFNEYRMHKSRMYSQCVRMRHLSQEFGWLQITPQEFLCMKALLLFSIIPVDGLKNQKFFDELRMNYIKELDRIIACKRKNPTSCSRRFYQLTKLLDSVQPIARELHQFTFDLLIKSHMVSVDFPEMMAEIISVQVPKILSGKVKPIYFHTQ
assay.notes: qHTS assay to identify small molecule antagonists of the androgen receptor (AR) signaling pathway (AID 743035)
test.conditions: HEK293 AR-UAS-bla, R1881-stimulated, beta-lactamase FRET, 16 h; series mostly up to 58.5 µM
Inconclusive results are not listed. Calls of active or inactive are those of the source. Calls come from the whole dose curve; as a rule, active = well fitted inhibition curve with a large enough effect in the signal ratio in the repeat runs (not every such curve was filed as active); inconclusive = weak or mixed curves, or effect the other way; inactive = no such curve, though single readings can be large or run the other way; the % refers to the signal ratio.
Outcomes: active, inactive

compound: CCC(OC(C)=O)C(CC(C)NC)(c1ccccc1)c1ccccc1 (stereo not drawn)
category: active
//
compound: O=C1C2(Cl)C3(Cl)C4(Cl)C(Cl)(Cl)C5(Cl)C3(Cl)C1(Cl)C5(Cl)C24Cl (stereo not drawn)
category: active
//
compound: CC(C)=CC1C(C(=O)OC(C#N)c2cccc(Oc3ccccc3)c2)C1(C)C (stereo not drawn)
category: inactive
//
compound: BrCCCBr
category: inactive
//
compound: CCOC(=O)Cc1ccccc1
category: inactive
//
compound: CCCCCCC[CH2][Sn]([Cl])([Cl])[CH2]CCCCCCC
category: active
//
compound: COc1ccc2c(c1OC)C(=O)O[C@@H]2[C@H]1c2cc3c(cc2CCN1C)OCO3
category: inactive
//
compound: CC(C)NCC(O)c1ccccc1Cl (stereo not drawn)
category: inactive
//
compound: Fc1ccc(C(OCCN2CCN(CCCc3ccccc3)CC2)c2ccc(F)cc2)cc1
category: active
//
compound: O=NN(CCO)CCO
category: inactive
//
compound: O=C(NC(=O)c1ccccc1Cl)Nc1ccc(OC(F)(F)F)cc1
category: inactive
//
compound: BrCC(Br)(Br)Br
category: inactive
//
compound: COP(=O)(OC)O/C(=C\Cl)c1cc(Cl)c(Cl)cc1Cl
category: active

---

target.of.assay: Peroxisome proliferator-activated receptor gamma (Homo sapiens)
assay.notes: qHTS assay to identify small molecule agonists of the peroxisome proliferator-activated receptor gamma (PPARg) signaling pathway (AID 743094); for activation: % is set by controls: 0 for no effect and ±100 for the full control effect
test.conditions: HEK293H PPARg-UAS-bla, beta-lactamase FRET ratio, 17 h; series mostly up to 57 µM
Inconclusive results are not listed. Activity calls are given as the source filed them. The call rests on the fitted dose curve; in most records, active means well fitted activation curve with a large enough effect in the signal ratio in the repeat runs (not every such curve was filed as active); inconclusive means weak or mixed curves, or effect the other way; inactive means no such curve, though single readings can be large or run the other way; the % refers to the signal ratio.
Classes used: true (1) for active, false (0) for inactive

compound: Cc1cnc2c(C(=O)O)c(Cl)ccc2c1
category: false (0)

compound: Cc1c([N+](=O)[O-])c(C)c([N+](=O)[O-])c(C(C)(C)C)c1[N+](=O)[O-]
category: false (0)

compound: CCCCCCCc1ccc(O)cc1
category: false (0)

compound: C#CCO
category: false (0)

compound: CC(Cc1ccc(OCC(=O)O)cc1)NCC(O)c1csc(C(F)(F)F)n1 (centres undefined)
category: false (0)

compound: O=C(Cl)c1ccccc1F
category: false (0)

compound: COP(=S)(OC)Oc1nc(Cl)c(Cl)cc1Cl
category: false (0)

compound: CC(Cc1ccc2c(c1)OCO2)NO (centres undefined)
category: false (0)

compound: COc1ccc2c(c1OC)C(=O)O[C@@H]2[C@H]1c2cc3c(cc2CCN1C)OCO3
category: false (0)

compound: O=[N+]([O-])C(Br)Br
category: false (0)

compound: O=C(N[C@H]1N=C(c2ccccc2F)c2cccc3c2N(CC3)C1=O)c1cc2ccccc2[nH]1
category: false (0)

compound: ClSC(Cl)(Cl)Cl
category: false (0)

compound: CCNc1nc(NC(C)C(C)C)nc(SC)n1 (centres undefined)
category: false (0)

compound: COC(=O)C(C)N(C(=O)c1ccco1)c1c(C)cccc1C (centres undefined)
category: false (0)

compound: CC1CN1 (centres undefined)
category: false (0)

compound: CC(C)C(Br)C(=O)NC(N)=O (centres undefined)
category: false (0)

compound: CN(C)c1ccc(N)cc1
category: false (0)

compound: CCNS(=O)(=O)C(F)(F)C(F)(F)C(F)(F)C(F)(F)C(F)(F)C(F)(F)C(F)(F)C(F)(F)F
category: false (0)

compound: Cc1ccn2nc(S(=O)(=O)Nc3c(F)cccc3F)nc2n1
category: false (0)

compound: [O]=[Cr][O][Cr]=[O]
category: false (0)

compound: CCCCN(CCCC)C(=S)[S-].CCCCN(CCCC)C(=S)[S-].[Ni+2]
category: false (0)

compound: CCOP(=O)(OCC)Oc1nc(Cl)c(Cl)cc1Cl
category: false (0)

compound: CN1[C@@H]2CC[C@H]1CC(O)C2 (some centres undefined)
category: false (0)

compound: Cc1ccccc1OP(=O)(Oc1ccccc1C)Oc1ccccc1C
category: false (0)

compound: CSC(C)(C)/C=N/O
category: false (0)

compound: COc1nc(C)nc(NC(=O)NS(=O)(=O)c2ccccc2Cl)n1
category: false (0)

compound: CCCCN(CCCC)C(=S)S
category: false (0)

compound: Clc1cc(Cl)c(-c2cc(Cl)c(Cl)cc2Cl)cc1Cl
category: false (0)

compound: O=c1c2ccccc2c(=O)c2c1cc(Cl)c1[nH]c3c([nH]c12)c(Cl)cc1c(=O)c2ccccc2c(=O)c13
category: false (0)

compound: Oc1cc(Cl)cc(Cl)c1
category: false (0)

compound: O=C(Nc1ccc(F)cc1F)c1cccnc1Oc1cccc(C(F)(F)F)c1
category: false (0)

compound: N#Cc1c[nH]cc1-c1cccc2c1OC(F)(F)O2
category: false (0)

compound: BrCC(Br)(Br)Br
category: false (0)

compound: C[C@H]1[C@H](c2ccc(Cl)cc2)SC(=O)N1C(=O)NC1CCCCC1
category: false (0)

compound: CCC[CH2][Sn]([CH2]CCC)([CH2]CCC)[CH2]CCC
category: true (1)

compound: CC(C)c1c(CN(C)C(C)Cc2ccccc2)n(C)n(-c2ccccc2)c1=O (centres undefined)
category: false (0)

compound: O=[N+]([O-])c1ccc(CCl)cc1
category: false (0)

compound: CC(C)N(C(=O)CCl)c1ccccc1
category: false (0)

compound: COCCC#N
category: false (0)

compound: [O-][Cl+3]([O-])([O-])O
category: false (0)

compound: Oc1ccc(Cl)c(Cl)c1
category: false (0)

compound: C=CCBr
category: false (0)

compound: Oc1ccc([C@H]2CNCc3c2ccc(O)c3O)cc1O
category: false (0)

compound: CNC(=O)Oc1cc(C)cc(C(C)C)c1
category: false (0)

compound: O=C(NC(=O)c1ccccc1Cl)Nc1ccc(OC(F)(F)F)cc1
category: false (0)

compound: CN1CCc2cc(Cl)c(O)cc2[C@H]2c3ccccc3CC[C@@H]21
category: false (0)

compound: ClC1=C(Cl)[C@]2(Cl)[C@H]3[C@H]([C@@H]4C=C[C@H]3C4)[C@@]1(Cl)C2(Cl)Cl
category: false (0)

compound: CC(=O)C(Cl)C(=O)N(C)C (centres undefined)
category: false (0)

compound: COP(=S)(OC)Oc1ccc([N+](=O)[O-])c(C)c1
category: false (0)

compound: c1cc[n+]2c(c1)-c1cccc[n+]1CC2
category: false (0)

compound: CNC(=O)/C=C(\C)OP(=O)(OC)OC
category: false (0)

compound: CCCCCON=O
category: false (0)

compound: C#CC1(O)CCCCC1
category: false (0)

compound: Cc1c([N+](=O)[O-])cc2c(c1[N+](=O)[O-])C(C)(C)CC2(C)C
category: false (0)

---

assay.notes: qHTS assay to identify small molecule agonists of the retinoic acid receptor (RAR) signaling pathway (AID 1159553); for activation: % is set by controls: 0 for no effect and ±100 for the full control effect
test.conditions: C3RL4 RARE luciferase reporter, agonist, 6 h; series mostly up to 73.3 µM
Inconclusive results are not listed. Activity calls are given as the source filed them. The call rests on the fitted dose curve; in most records, active means well fitted activation curve with a large enough effect in the repeat runs; inconclusive means weak or mixed curves, or effect the other way; inactive means no such curve, though single readings can be large or run the other way.
Outcome codes: 1 = active, 0 = inactive

molecule: O=c1[nH]c2cc(Cl)ccc2n1C1CCNCC1
category: 0
--
molecule: CNC(=O)CSP(=O)(OC)OC
category: 0
--
molecule: Oc1cccc(Cl)c1Cl
category: 0
--
molecule: Brc1cccc(-c2ccccc2)c1
category: 0
--
molecule: CNC(=O)Oc1cc(C)cc(C(C)C)c1
category: 0
--
molecule: CSSC
category: 0
--
molecule: CC1(C)C(C=C(Cl)Cl)C1C(=O)OC(C#N)c1ccc(F)c(Oc2ccccc2)c1 (configuration not stated)
category: 0
--
molecule: CN1C(=O)[C@@H](NC(=O)c2cc3ccccc3[nH]2)N=C(c2ccccc2)c2ccccc21
category: 0
--
molecule: Oc1ccc2[nH]cc(CCCCN3CC=C(c4ccccc4)CC3)c2c1
category: 0
--
molecule: C=CC(=C)C
category: 0
--
molecule: COP(=S)(OC)Oc1nc(Cl)c(Cl)cc1Cl
category: 0
--
molecule: CC(C)N(C(=O)SC/C(Cl)=C/Cl)C(C)C
category: 0
--
molecule: CCCCCCC[CH2][Sn]([Cl])([Cl])[CH2]CCCCCCC
category: 0
--
molecule: Nc1c(Cl)c(Cl)c(Cl)c(Cl)c1Cl
category: 0
--
molecule: COP(=O)(OC)Oc1ccc([N+](=O)[O-])cc1
category: 0
--
molecule: c1ccc2c(c1)cc1ccc3cccc4ccc2c1c34
category: 1
--
molecule: O=[N+]([O-])C(Br)Br
category: 0
--
molecule: Oc1cc(Cl)c(Cl)c(Cl)c1Cl
category: 0
--
molecule: COc1c2c(cc3c1OCO3)CCN(C)C2
category: 0
--
molecule: O=P(Cl)(Cl)Cl
category: 0
--
molecule: N#Cc1c2ccccc2cc2ccccc12
category: 0
--
molecule: C[C@@H]1CC2=CC(=O)CC[C@@H]2[C@H]2CC[C@@]3(C)[C@@H](CC[C@]3(C)O)[C@@H]21
category: 0
--
molecule: CCC[CH2][Sn]([CH2]CCC)([CH2]CCC)[CH2]CCC
category: 0
--
molecule: O=[N+]([O-])c1cccc2cccc([N+](=O)[O-])c12
category: 0
--
molecule: CCCCC/C=C\C/C=C\C/C=C\C/C=C\CCCC(=O)NCC(=O)O
category: 0
--
molecule: CCO/N=C(\CC)C1=C(O)CC(c2c(C)cc(C)cc2C)CC1=O (configuration not stated)
category: 0
--
molecule: C#CC1(O)CCCCC1
category: 0
